The measurements presented in this section are drawn from paper PMC10458307.

Recorded pIC50, one value per entry.
testTarget: 20S proteasome in Jurkat cell lysates, CT-L activity (Homo sapiens)
measurementProtocol: Proteasome inhibition assay in cell lysates, Jurkat, CT-L
pIC50: −log10 of the molar value.
observedProperty: pIC50

molecule | observedProperty | quantitativeResult
C#CCCN1CCN(c2ccc(-n3c(=O)ccc4cnc5ccc(-c6ccc(N)nc6)cc5c43)cc2C(F)(F)F)CC1 | pIC50 | 4.62
O=C1c2ccccc2C(=O)c2c(Nc3ccc(S(=O)(=O)N(CCO)CCO)cc3)ccc(O)c21 | pIC50 | 4.14

###

testTarget: 20S proteasome in HT-29 cell lysates, CT-L activity (Homo sapiens, UniProt P28074)
measurementProtocol: Proteasome inhibition assay in cell lysates, HT-29, CT-L
conditions: read-out: percentage of proteasome inhibition, CT-L, cell lysates HT-29, at 100 µM; Table 2 legend: bortezomib 10 µM
Please note: 1 applies when inhibition at 100 µM is 60% or greater, and 0 applies otherwise.

molecule | labelClass
C#CCCN1CCN(c2ccc(-n3c(=O)ccc4cnc5ccc(-c6ccc(N)nc6)cc5c43)cc2C(F)(F)F)CC1 [Compound 4] | 1
O=C1c2ccccc2C(=O)c2c(Nc3ccc(S(=O)(=O)N(CCO)CCO)cc3)ccc(O)c21 [Compound 2] | 1
Cc1ccc2ccccc2c1CSc1ncnc2c1ncn2C1OC(CO)C(O)C1O (centres unmarked) [Compound 1] | 1
CC(C)c1nc(CN(C)C(=O)N[C@@H](CCN2CCOCC2)C(=O)N[C@H](CC[C@H](Cc2ccccc2)NC(=O)OCc2cncs2)Cc2ccccc2)cs1 [Compound 5, cobicistat, reference compound] | 1
Cc1ccc(/C(=N/NS(=O)(=O)c2ccc([N+](=O)[O-])cc2)Sc2cc(Cl)c(C)cc2S(N)(=O)=O)cc1 [Compound 3] | 0

###

Overview of recorded viability at 72 h, 100 µM for various molecules
measurementProtocol: Cell viability, MTT assay, HCT116
Format: cell-based, human
conditions: human, HCT116 colorectal carcinoma cells, at 100 µM, read-out: percentage of cell viability, MTT, HCT116
observedProperty: viability at 72 h, 100 µM (%)

molecule | observedProperty | unitsText | quantitativeResult
CC(C)C[C@H](NC(=O)[C@H](Cc1ccccc1)NC(=O)c1cnccn1)B(O)O [Bortezomib, bortezomib, reference compound] | viability at 72 h, 100 µM | % | 0
CC(C)c1nc(CN(C)C(=O)N[C@@H](CCN2CCOCC2)C(=O)N[C@H](CC[C@H](Cc2ccccc2)NC(=O)OCc2cncs2)Cc2ccccc2)cs1 [Compound 5, cobicistat, reference compound] | viability at 72 h, 100 µM | % | 23.7
Cc1ccc(/C(=N/NS(=O)(=O)c2ccc([N+](=O)[O-])cc2)Sc2cc(Cl)c(C)cc2S(N)(=O)=O)cc1 | viability at 72 h, 100 µM | % | 95.2

###

Recorded inhibition at 10 µM, one value per entry.
testTarget: 20S proteasome in HCT116 cell lysates, CT-L activity (Homo sapiens)
Sequence (P28074 60-263): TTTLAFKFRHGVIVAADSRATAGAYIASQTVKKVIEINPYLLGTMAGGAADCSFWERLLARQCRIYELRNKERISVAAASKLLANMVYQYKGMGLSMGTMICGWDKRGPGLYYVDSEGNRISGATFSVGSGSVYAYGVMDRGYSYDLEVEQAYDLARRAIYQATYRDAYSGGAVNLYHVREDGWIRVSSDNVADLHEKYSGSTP
Sequence (P20618 29-241 partner): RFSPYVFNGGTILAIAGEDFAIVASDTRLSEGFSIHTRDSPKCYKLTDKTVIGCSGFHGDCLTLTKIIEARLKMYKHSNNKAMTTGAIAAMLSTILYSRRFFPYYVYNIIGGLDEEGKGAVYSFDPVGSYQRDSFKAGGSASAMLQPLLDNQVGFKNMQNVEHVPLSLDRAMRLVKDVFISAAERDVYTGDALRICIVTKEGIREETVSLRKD
measurementProtocol: Proteasome inhibition assay in cell lysates, HCT116, CT-L
conditions: read-out: percentage of proteasome inhibition, CT-L, cell lysates HCT-116, at 10 µM

compound | testTarget | inhibition at 10 µM / %
C#CCCN1CCN(c2ccc(-n3c(=O)ccc4cnc5ccc(-c6ccc(N)nc6)cc5c43)cc2C(F)(F)F)CC1 | 20S proteasome in HCT116 cell lysates, CT-L activity (Homo sapiens) | 22.1
CC(C)c1nc(CN(C)C(=O)N[C@@H](CCN2CCOCC2)C(=O)N[C@H](CC[C@H](Cc2ccccc2)NC(=O)OCc2cncs2)Cc2ccccc2)cs1 [Compound 5, cobicistat, reference compound] | 20S proteasome in HCT116 cell lysates, CT-L activity (Homo sapiens) | 0
Cc1ccc(/C(=N/NS(=O)(=O)c2ccc([N+](=O)[O-])cc2)Sc2cc(Cl)c(C)cc2S(N)(=O)=O)cc1 | 20S proteasome in HCT116 cell lysates, CT-L activity (Homo sapiens) | 0
Cc1ccc2ccccc2c1CSc1ncnc2c1ncn2C1OC(CO)C(O)C1O (centres unmarked) | 20S proteasome in HCT116 cell lysates, CT-L activity (Homo sapiens) | 0
O=C1c2ccccc2C(=O)c2c(Nc3ccc(S(=O)(=O)N(CCO)CCO)cc3)ccc(O)c21 | 20S proteasome in HCT116 cell lysates, CT-L activity (Homo sapiens) | 6.93
